- target_of_assay: furin, P09958;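 further: purified furin at 1:10 enzyme:substrate in 50 mM HEPES pH 7.5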
- Sequence (P09958 whole entry): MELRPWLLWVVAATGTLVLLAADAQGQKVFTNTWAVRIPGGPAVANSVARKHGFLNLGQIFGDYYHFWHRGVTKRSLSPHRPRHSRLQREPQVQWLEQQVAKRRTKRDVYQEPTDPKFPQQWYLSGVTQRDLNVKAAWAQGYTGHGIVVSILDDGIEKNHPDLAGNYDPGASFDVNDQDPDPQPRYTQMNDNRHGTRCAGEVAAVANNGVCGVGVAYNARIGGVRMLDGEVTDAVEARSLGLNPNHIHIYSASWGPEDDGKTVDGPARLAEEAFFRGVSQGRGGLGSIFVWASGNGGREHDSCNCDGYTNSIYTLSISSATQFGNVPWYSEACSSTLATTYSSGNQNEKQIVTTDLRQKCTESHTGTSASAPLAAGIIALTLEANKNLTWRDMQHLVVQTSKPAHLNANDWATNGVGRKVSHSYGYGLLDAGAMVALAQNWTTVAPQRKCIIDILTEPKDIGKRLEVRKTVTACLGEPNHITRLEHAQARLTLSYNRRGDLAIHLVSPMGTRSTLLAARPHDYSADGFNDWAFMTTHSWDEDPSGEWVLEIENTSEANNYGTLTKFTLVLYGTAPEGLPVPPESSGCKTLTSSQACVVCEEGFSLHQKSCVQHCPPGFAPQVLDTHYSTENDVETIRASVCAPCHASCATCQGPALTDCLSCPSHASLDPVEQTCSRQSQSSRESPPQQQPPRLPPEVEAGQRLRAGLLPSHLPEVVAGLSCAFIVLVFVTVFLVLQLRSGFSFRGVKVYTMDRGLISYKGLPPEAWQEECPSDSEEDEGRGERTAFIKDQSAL
- protocol_description: furin cleavage Z-score vs untreated control; higher = more cleavage, active = 3.5 or more, inactive = 1 or less, 8 variable residues between constant flanks
- run_conditions: 15 min
The list shows a part of the results. No count for the full screen is at hand.
readout_label: furin cleavage Z-score
Reply briefly: the number, and no unit.

CADTTIMAKNAGNASASA [HC1438]
-0.0215

Kindly note the recorded furin cleavage Z-score for CANGFRHARNAGNASASA [FS-466] , which is -0.454

Kindly note the recorded furin cleavage Z-score for CALRQRRRRLAGNASASA [FS-1233] , which is 8.53

Kindly note the recorded furin cleavage Z-score for CAFVVTSTWVAGNASASA [HC2147] , which is 0.171
